- measurement_target: Prostaglandin G/H synthase 1 (Ovis aries) (UniProt P05979)
- Sequence (P05979 whole entry): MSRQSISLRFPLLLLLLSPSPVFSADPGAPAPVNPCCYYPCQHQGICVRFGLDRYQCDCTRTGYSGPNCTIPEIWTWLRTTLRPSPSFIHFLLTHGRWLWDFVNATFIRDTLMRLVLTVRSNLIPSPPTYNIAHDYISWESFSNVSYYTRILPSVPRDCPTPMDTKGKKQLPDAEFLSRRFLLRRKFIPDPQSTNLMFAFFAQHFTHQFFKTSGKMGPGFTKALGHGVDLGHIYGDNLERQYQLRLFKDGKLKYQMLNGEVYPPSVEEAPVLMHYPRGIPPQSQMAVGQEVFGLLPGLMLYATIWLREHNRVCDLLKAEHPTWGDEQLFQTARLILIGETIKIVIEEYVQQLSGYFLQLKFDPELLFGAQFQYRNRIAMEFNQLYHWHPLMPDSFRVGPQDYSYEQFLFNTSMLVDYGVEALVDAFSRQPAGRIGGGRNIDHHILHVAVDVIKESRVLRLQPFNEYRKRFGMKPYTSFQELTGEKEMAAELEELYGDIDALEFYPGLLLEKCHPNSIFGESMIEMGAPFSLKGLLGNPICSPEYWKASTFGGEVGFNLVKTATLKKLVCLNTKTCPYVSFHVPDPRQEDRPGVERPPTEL
- experiment: Inhibition of ovine COX1 at 50 uM using arachidonic acid as substrate by ELISA
Calls of active or inactive are those of the source. The rule behind the calls is not given here.

molecule	inhibition
CN1CCOC(O)(c2ccc(-c3ccccc3)cc2)C1 (centres undefined)	38%
CN1CC(O)(c2ccc(-c3cc(C(C)(C)C)c(O)c(C(C)(C)C)c3)cc2)Sc2ccccc21 (centres undefined)	inactive
OC1(c2ccc(/C=C/c3ccccc3)cc2)CN2CCCCC2CO1 (centres undefined)	inactive
CN1CC(O)(c2ccc(/C=C/c3ccccc3)cc2)OC2CCCCC21 (centres undefined)	inactive

---

- experiment: Antioxidant activity assessed as DPPH radical scavenging activity measured at 30 to 60 mins by UV-Visible spectrophotometric method
- Assay type: functional
Define the label as Fulfilled when IC50 is strictly less than 200 µM and as Not fulfilled in all remaining cases.

Worked set:
compound	label_class
CN1CC(O)(c2ccc(-c3cc(C(C)(C)C)c(O)c(C(C)(C)C)c3)cc2)Sc2ccccc21 (configuration not stated)	Fulfilled
CN1CC(O)(c2ccccc2)Sc2ccccc21 (configuration not stated)	Fulfilled
CN1CC(O)(c2ccccc2)Oc2ccccc21 (configuration not stated)	Fulfilled
CC(C)(Sc1cc(C(C)(C)C)c(O)c(C(C)(C)C)c1)Sc1cc(C(C)(C)C)c(O)c(C(C)(C)C)c1	Not fulfilled
CSc1ccccc1N(C)CC(=O)c1ccc(-c2ccccc2)cc1	Not fulfilled

// switching to the query compound
# input hey, is IC50 for OC1(c2ccc(/C=C/c3ccccc3)cc2)CN2CCCCC2CO1 (configuration not stated) lower than 200 µM or not?
# output Not fulfilled

---

- System: Liver
- experiment: Antioxidant activity in heat-inactivated Fischer-344 rat hepatic microsomes assessed as protection against Fe2+/ascorbate-induced lipid peroxidation after 45 mins by TBAR-based spectrophotometry
- Assay type: functional, microsome
- measurement_setup: Fischer-344, Liver, 0.75 h
The following molecules are listed with their measured pIC50 values.
Please keep in mind that pIC50 is minus log10 of the molar concentration; only the number is needed.

molecule	pIC50
Oc1ccc(/C=C/c2cc(O)cc(O)c2)cc1	4.82

# input Please give the measured pIC50 for this molecule: CN1CC(O)(c2ccc(-c3cc(C(C)(C)C)c(O)c(C(C)(C)C)c3)cc2)Sc2ccccc21 (stereo unspecified)
# output 5.19

# input What pIC50 value was documented for this molecule, CN1CCOC(O)(c2ccc(-c3ccccc3)cc2)C1 (stereo unspecified) ?
# output 3.52

---

- measurement_target: Squalene synthase (Rattus norvegicus)
- Sequence (Q02769 whole entry): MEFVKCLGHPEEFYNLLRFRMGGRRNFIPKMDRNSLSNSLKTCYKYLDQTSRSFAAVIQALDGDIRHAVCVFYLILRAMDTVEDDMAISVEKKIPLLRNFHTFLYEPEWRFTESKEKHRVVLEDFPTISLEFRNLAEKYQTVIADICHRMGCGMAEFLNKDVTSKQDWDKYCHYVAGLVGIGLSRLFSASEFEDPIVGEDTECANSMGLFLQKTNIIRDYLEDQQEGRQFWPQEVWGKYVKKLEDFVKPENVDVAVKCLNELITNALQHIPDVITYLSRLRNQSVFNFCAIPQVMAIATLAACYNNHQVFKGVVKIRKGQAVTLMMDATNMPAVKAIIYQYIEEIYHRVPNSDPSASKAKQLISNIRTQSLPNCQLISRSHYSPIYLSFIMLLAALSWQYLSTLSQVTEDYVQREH
- experiment: Inhibition of SQS in rat microsomes using [3H]-FPP as substrate preincubated for 10 mins followed by substrate addition measured after 30 mins by scintillation counting
property_label: IC50 (µM)
The reply should contain only the number, in µM.

Worked set:
molecule	IC50 (µM)
CN1CC(O)(c2ccc(-c3ccc(C(F)(F)F)cc3)cc2)Sc2ccccc21 (centres undefined)	14
CN1CCOC(O)(c2ccc(/C=C/c3ccccc3)cc2)C1 (centres undefined)	7
CN1CC(O)(c2ccccc2)Sc2ccccc21 (centres undefined)	28

# input Give the measured IC50 of OC1(c2ccc(-c3ccccc3)cc2)CN2CCCCC2CO1 (centres undefined) .
# output 35

# input Need IC50, item CN1CC(O)(c2ccccc2)Oc2ccccc21 (centres undefined)
# output 50

# input So what's the measured IC50 for this one? CN1CCOC(O)(c2ccc(-c3ccccc3)cc2)C1 (centres undefined)
# output 33

# input Can you look up the measured IC50 of CN1CC(O)(c2ccc(-c3ccccc3)cc2)SC2CCCCC21 (centres undefined) for me?
# output 16.5

---

- measurement_target: Prostaglandin G/H synthase 2 (Homo sapiens) (UniProt P35354)
- Sequence (P35354 whole entry): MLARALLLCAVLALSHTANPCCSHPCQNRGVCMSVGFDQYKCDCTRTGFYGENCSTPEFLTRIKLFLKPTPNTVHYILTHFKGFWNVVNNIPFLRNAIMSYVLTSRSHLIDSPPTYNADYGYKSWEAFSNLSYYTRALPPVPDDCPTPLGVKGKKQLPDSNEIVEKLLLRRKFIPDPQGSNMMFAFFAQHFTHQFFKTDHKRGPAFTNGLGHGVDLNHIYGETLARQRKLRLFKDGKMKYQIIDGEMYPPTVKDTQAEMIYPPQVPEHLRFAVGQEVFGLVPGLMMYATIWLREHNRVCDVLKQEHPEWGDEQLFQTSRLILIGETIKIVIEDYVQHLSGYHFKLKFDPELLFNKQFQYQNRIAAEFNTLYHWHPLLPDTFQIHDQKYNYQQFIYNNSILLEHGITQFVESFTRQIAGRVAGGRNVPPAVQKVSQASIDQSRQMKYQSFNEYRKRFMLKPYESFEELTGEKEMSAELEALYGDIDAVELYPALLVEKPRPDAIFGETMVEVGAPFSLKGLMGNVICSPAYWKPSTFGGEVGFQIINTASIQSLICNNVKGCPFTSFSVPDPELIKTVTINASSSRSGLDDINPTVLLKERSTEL
- experiment: Inhibition of recombinant human COX2 at 50 uM using arachidonic acid as substrate by ELISA
Active and inactive are the calls of the source. The calls are words filed in the database; no cut-off is given here.
property_label: inhibition

compound	measurement_target	data_value
CN1CC(O)(c2ccc(/C=C/c3ccccc3)cc2)OC2CCCCC21 (centres undefined)	Prostaglandin G/H synthase 2 (Homo sapiens) (UniProt P35354)	inactive
CN1CCOC(O)(c2ccc(-c3ccccc3)cc2)C1 (centres undefined)	Prostaglandin G/H synthase 2 (Homo sapiens) (UniProt P35354)	100%
CN1CC(O)(c2ccc(-c3cc(C(C)(C)C)c(O)c(C(C)(C)C)c3)cc2)Sc2ccccc21 (centres undefined)	Prostaglandin G/H synthase 2 (Homo sapiens) (UniProt P35354)	inactive
OC1(c2ccc(/C=C/c3ccccc3)cc2)CN2CCCCC2CO1 (centres undefined)	Prostaglandin G/H synthase 2 (Homo sapiens) (UniProt P35354)	inactive

---

- Tested on: Liver
- experiment: Antioxidant activity in heat-inactivated Fischer-344 rat hepatic microsomes assessed as protection against Fe2+/ascorbate-induced lipid peroxidation after 45 mins by TBAR-based spectrophotometry
- Assay type: functional, microsome
- measurement_setup: Fischer-344, Liver, 0.75 h
Just a reminder that ties go to no (0): only IC50 strictly below 10 µM counts as yes (1).

# count of solved cases: 5
compound	label_class
CN1CC(O)(c2ccc(-c3ccccc3)cc2)SC2CCCCC21 (stereo unspecified)	no (0)
CSc1ccccc1N(C)CC(=O)c1ccc(-c2ccccc2)cc1	no (0)
OC1(c2ccc(-c3ccccc3)cc2)CN2CCCCC2CO1 (stereo unspecified)	no (0)
CN1CC(O)(c2ccccc2)Oc2ccccc21 (stereo unspecified)	yes (1)
CN1CC(O)(c2ccc(-c3ccc(C(F)(F)F)cc3)cc2)Sc2ccccc21 (stereo unspecified)	no (0)

Continue with the next compound.
# input Is IC50 strictly under 10 µM for the entry OC1(c2ccc(/C=C/c3ccccc3)cc2)CN2CCCCC2CO1 (stereo unspecified) ?
# output no (0)

---

- experiment: Antioxidant activity assessed as DPPH radical scavenging activity measured at 30 to 60 mins by UV-Visible spectrophotometric method
- Type: functional
# maps each entry to its IC50

Sample answers from the record:
compound	IC50
CN1CC(O)(c2ccc(-c3ccccc3)cc2)SC2CCCCC21 (stereo unspecified)	271 µM
CN1CCOC(O)(c2ccc(/C=C/c3ccccc3)cc2)C1 (stereo unspecified)	> 400 µM
CN1CCOC(O)(c2ccc(-c3ccccc3)cc2)C1 (stereo unspecified)	> 400 µM
CN1CC(O)(c2ccc(-c3ccc(O)cc3)cc2)Sc2ccccc21 (stereo unspecified)	44 µM
CN1CC(O)(c2ccc(/C=C/c3ccccc3)cc2)OC2CCCCC21 (stereo unspecified)	> 400 µM

# input What value of measured IC50 is listed for CN1CC(O)(c2ccc(-c3ccccc3)cc2)Oc2ccc(-c3ccccc3)cc21 (stereo unspecified) ?
# output > 400 µM

---

- Test system: Liver
- experiment: Antioxidant activity in heat-inactivated Fischer-344 rat hepatic microsomes assessed as protection against Fe2+/ascorbate-induced lipid peroxidation after 45 mins by TBAR-based spectrophotometry
- Assay type: functional, microsome
- measurement_setup: Fischer-344, Liver, 0.75 h
Here the recorded IC50 is given for each entry.
Numbers only; they are read as µM.

# input For the record CN1CC(O)(c2ccccc2)Sc2ccccc21 (stereo not drawn) , what value of IC50 is listed for Liver?
# output 8.2

# input GET /values?readout=IC50&system=Liver&item= CN1CCOC(O)(c2ccc(/C=C/c3ccccc3)cc2)C1 (stereo not drawn)
# output 110

# input So what IC50 did CN1CC(O)(c2ccc(/C=C/c3ccccc3)cc2)OC2CCCCC21 (stereo not drawn) get with Liver?
# output 45

---

Below is a list of entries, each paired with its recorded IC50 value.
- experiment: Antioxidant activity assessed as DPPH radical scavenging activity measured at 30 to 60 mins by UV-Visible spectrophotometric method
- Type: functional
# output: bare number, implied unit µM

# input Which IC50 value is on record for Oc1ccc(/C=C/c2cc(O)cc(O)c2)cc1 ?
# output 96

# input What value of measured IC50 is listed for CN1CC(O)(c2ccc(-c3ccc(C(F)(F)F)cc3)cc2)Sc2ccccc21 (stereo not given) ?
# output 171

---

Property: IC50; scope: individual compounds
- experiment: Antioxidant activity assessed as DPPH radical scavenging activity measured at 30 to 60 mins by UV-Visible spectrophotometric method
- Assay type: functional

Use these answered entries as a reference point.
compound	IC50
CN1CC(O)(c2ccc(-c3ccccc3)cc2)OC2CCCCC21 (stereo not drawn)	> 400 µM
CN1CC(O)(c2ccc(-c3cc(C(C)(C)C)c(O)c(C(C)(C)C)c3)cc2)OC2CCCCC21 (stereo not drawn)	> 400 µM

Consider now this further compound.
# input Given OC1(c2ccc(-c3ccccc3)cc2)CN2CCCCC2CO1 (stereo not drawn) , state its recorded IC50.
# output > 400 µM
